target: human TAAR1 receptor (Homo sapiens (Human), UniProt Q96RJ0); assay: Evaluation of agonist activity on human TAAR1 receptor (cAMP assay); format: cell-based; settings: CHO, 0.5 h, 1000 nM; cAMP in human TAAR1-expressing CHO cells; relative to 100 μM tyramine; read-out: TAAR1 agonist activity at each concentration (%)
Sequence (Q96RJ0 whole entry, the tested form may be a part): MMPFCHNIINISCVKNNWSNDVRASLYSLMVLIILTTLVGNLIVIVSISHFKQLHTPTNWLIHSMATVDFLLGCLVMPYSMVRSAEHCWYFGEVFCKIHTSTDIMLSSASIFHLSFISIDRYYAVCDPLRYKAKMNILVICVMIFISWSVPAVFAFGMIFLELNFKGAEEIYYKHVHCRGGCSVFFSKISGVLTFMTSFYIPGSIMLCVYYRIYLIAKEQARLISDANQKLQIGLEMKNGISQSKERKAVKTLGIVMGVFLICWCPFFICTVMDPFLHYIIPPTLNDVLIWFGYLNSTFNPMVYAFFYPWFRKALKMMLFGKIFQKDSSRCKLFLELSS
Counter-ions that a name gives are not always drawn.
Measured Metric: activation at 1 µM (%)
Numeric answer only, unit % assumed.

As a guide, the following entries are already answered.
[[record]]
compound = "C[C@@H]1[C@H](C)Oc2cccnc2[C@H]1CN (racemic) [Example 65]"
endpoint_result = 28

[[record]]
compound = "NCC1CCOc2ccc(C(F)(F)F)nc21 (centres unmarked) [Example 67]"
endpoint_result = 10

[[record]]
compound = "NC[C@@H]1c2ncccc2OC12CC2 (single isomer, unassigned) [Example 96, dihydrochloride]"
endpoint_result = 28


If you can, please state the reported activation at 1 µM value of Cc1ccnc2c1CCCC2CN (racemic) [Example 92] .
0

Let us now turn to C[C@H]1Oc2ccc(F)nc2[C@@H]1CN [Example 29]
93

Try this compound next: [2H][C@@]1(C)Oc2cccnc2[C@H]1CN (stereo in doubt) [Example 94, dihydrochloride]
4

Now the same for CNC[C@H]1c2ncc(F)cc2O[C@@H]1C [Example 49, dihydrobromide]
63

Another compound: NCC1CCc2c(Cl)ccnc21 (centres unmarked) [Example 75]
26

Same read-out for [2H]C([2H])([2H])NC[C@H]1c2ncc(F)cc2O[C@@H]1C [Example 80] ?
48

Next: Cc1ccc2c(n1)[C@@H](CN)C[C@@H](C)O2 [Example 17]
4

Next compound: C[C@@H]1Oc2cccnc2[C@H]1CN [Example 19]
13

Then this compound: Cc1cc(C)c2c(n1)[C@H](CN)[C@@H](C)O2 [Example 84]
51

Same question, Cc1ccc2c(n1)C(CN)CS2 (centres unmarked) [Example 11] this time
58

Now the same for NC[C@@H]1C[C@@H](c2ccccc2)Oc2cccnc21 (racemic) [Example 25]
21

Next: Cc1ccc2c(n1)[C@@H](CN)C1(CC1)O2 (single isomer, unassigned) [Example 100, dihydrochloride]
17

Also, NC[C@H]1CSc2cccnc21 (single isomer, unassigned) [Example 41, dihydrochloride] please.
38

----------
target: human TAAR1 receptor (Homo sapiens (Human), UniProt Q96RJ0); assay: Evaluation of agonist activity on human TAAR1 receptor (cAMP assay); format: cell-based; settings: CHO, 0.5 h, 1000 nM; cAMP in human TAAR1-expressing CHO cells; relative to 100 μM tyramine; read-out: TAAR1 agonist activity at each concentration (%)
Measured Metric: activation at 1 µM (%)
Number only, in %; omit the unit.

[[record]]
molecule = "CNC[C@@H]1C[C@@H](C)Oc2ccc(C)nc21"
target_or_system = "human TAAR1 receptor (Homo sapiens (Human), UniProt Q96RJ0)"
endpoint_result = 52

[[record]]
molecule = "C[C@H]1Oc2cccnc2[C@@H]1C(C)(C)N"
target_or_system = "human TAAR1 receptor (Homo sapiens (Human), UniProt Q96RJ0)"
endpoint_result = 63


May I ask what activation at 1 µM has been recorded for C[C@@H]1C[C@@H](CN)c2ncccc2S1 (racemic) ?
47

----------
Below: a set of entries, each annotated with reported activation at 0.1 µM.
target: human TAAR1 receptor (Homo sapiens (Human)); assay: Evaluation of agonist activity on human TAAR1 receptor (cAMP assay); assay type: cell-based; settings: CHO, 0.5 h, 100 nM; cAMP in human TAAR1-expressing CHO cells; relative to 100 μM tyramine; read-out: TAAR1 agonist activity at each concentration (%)
Counter-ions that a name gives are not always drawn.
Answer in %, number only, no unit symbol.

Some solved entries appear below for comparison.
[[record]]
molecule = "NCC1c2ncccc2OCC12CC2 (stereo not drawn)"
target_or_system = "human TAAR1 receptor (Homo sapiens (Human))"
endpoint_result = 4

[[record]]
molecule = "COc1ccc2c(n1)C(CN)CCC2 (racemic) [Example 88, dihydrochloride]"
target_or_system = "human TAAR1 receptor (Homo sapiens (Human))"
endpoint_result = 11

[[record]]
molecule = "CNC[C@H]1c2nccc(C)c2O[C@@H]1C"
target_or_system = "human TAAR1 receptor (Homo sapiens (Human))"
endpoint_result = 10

[[record]]
molecule = "C[C@H]1COc2cccnc2[C@@H]1CN (racemic) [Example 1, dihydrochloride]"
target_or_system = "human TAAR1 receptor (Homo sapiens (Human))"
endpoint_result = 2

[[record]]
molecule = "CNC[C@H]1c2ncc(Cl)cc2O[C@@H]1C"
target_or_system = "human TAAR1 receptor (Homo sapiens (Human))"
endpoint_result = 12


Which activation at 0.1 µM is reported for this molecule? C[C@@H]1COc2cccnc2[C@@H]1CN (stereo in doubt) [Example 4, dihydrochloride]
17

Then C[C@H]1Oc2cccnc2[C@H]1CN (racemic) [Example 36, dihydrochloride] ?
0

Query NCC1CSc2cccnc21 (stereo not drawn) next
18

Same lookup for NCC1CCNc2cccnc21 (stereo not drawn) , please.
3

// same read-out, input: CC[C@@H]1COc2cccnc2[C@@H]1CN (racemic)
4

Another molecule to check: CNCC1c2nc(C)ccc2OC1(C)C (stereo not drawn)
36

Also C[C@H]1Oc2ccc(Cl)nc2[C@@H]1CN [Example 38, dihydrochloride] ?
52

Queued: "CNC[C@@H]1C[C@H](C)Oc2cccnc21"
16

Again, but for Cc1ccnc2c1CCCC2CN (racemic)
0

----------
List of activation at 0.1 µM values.
molecular target: human TAAR1 receptor (Homo sapiens (Human), UniProt Q96RJ0); experiment: Evaluation of agonist activity on human TAAR1 receptor (cAMP assay); format: cell-based; settings: CHO, 0.5 h, 100 nM; cAMP in human TAAR1-expressing CHO cells; relative to 100 μM tyramine; read-out: TAAR1 agonist activity at each concentration (%)
Counter-ions that a name gives are not always drawn.
Only the number, expressed in %, is required.

Example molecules with recorded activation at 0.1 µM:
[[record]]
molecule = "NC[C@@H]1C[C@@H](c2ccccc2)Oc2cccnc21 (racemic)"
target_or_system = "human TAAR1 receptor (Homo sapiens (Human), UniProt Q96RJ0)"
endpoint_result = 2

[[record]]
molecule = "CCNC[C@H]1c2ncccc2O[C@@H]1C"
target_or_system = "human TAAR1 receptor (Homo sapiens (Human), UniProt Q96RJ0)"
endpoint_result = 7

[[record]]
molecule = "Cc1ccc2c(n1)[C@H](CN)C1(CC1)O2 (single isomer, unassigned) [Example 101, dihydrochloride]"
target_or_system = "human TAAR1 receptor (Homo sapiens (Human), UniProt Q96RJ0)"
endpoint_result = 62

[[record]]
molecule = "Cc1ccc2c(n1)[C@H](CN)C(C)(C)O2 (single isomer, unassigned) [Example 105, dihydrochloride]"
target_or_system = "human TAAR1 receptor (Homo sapiens (Human), UniProt Q96RJ0)"
endpoint_result = 64


# input molecule: "C[C@@H]1Oc2cccnc2[C@H]1CN" ; wanted: its activation at 0.1 µM
2

----------
target: hERG channel (Homo sapiens (Human)); test: Evaluation of hERG channel inhibitory activity (whole-cell patch clamp, hERG-CHO cells); format: cell-based; details: autopatch clamp, read-out: hERG inhibition IC50
Sequence (Q12809 whole entry): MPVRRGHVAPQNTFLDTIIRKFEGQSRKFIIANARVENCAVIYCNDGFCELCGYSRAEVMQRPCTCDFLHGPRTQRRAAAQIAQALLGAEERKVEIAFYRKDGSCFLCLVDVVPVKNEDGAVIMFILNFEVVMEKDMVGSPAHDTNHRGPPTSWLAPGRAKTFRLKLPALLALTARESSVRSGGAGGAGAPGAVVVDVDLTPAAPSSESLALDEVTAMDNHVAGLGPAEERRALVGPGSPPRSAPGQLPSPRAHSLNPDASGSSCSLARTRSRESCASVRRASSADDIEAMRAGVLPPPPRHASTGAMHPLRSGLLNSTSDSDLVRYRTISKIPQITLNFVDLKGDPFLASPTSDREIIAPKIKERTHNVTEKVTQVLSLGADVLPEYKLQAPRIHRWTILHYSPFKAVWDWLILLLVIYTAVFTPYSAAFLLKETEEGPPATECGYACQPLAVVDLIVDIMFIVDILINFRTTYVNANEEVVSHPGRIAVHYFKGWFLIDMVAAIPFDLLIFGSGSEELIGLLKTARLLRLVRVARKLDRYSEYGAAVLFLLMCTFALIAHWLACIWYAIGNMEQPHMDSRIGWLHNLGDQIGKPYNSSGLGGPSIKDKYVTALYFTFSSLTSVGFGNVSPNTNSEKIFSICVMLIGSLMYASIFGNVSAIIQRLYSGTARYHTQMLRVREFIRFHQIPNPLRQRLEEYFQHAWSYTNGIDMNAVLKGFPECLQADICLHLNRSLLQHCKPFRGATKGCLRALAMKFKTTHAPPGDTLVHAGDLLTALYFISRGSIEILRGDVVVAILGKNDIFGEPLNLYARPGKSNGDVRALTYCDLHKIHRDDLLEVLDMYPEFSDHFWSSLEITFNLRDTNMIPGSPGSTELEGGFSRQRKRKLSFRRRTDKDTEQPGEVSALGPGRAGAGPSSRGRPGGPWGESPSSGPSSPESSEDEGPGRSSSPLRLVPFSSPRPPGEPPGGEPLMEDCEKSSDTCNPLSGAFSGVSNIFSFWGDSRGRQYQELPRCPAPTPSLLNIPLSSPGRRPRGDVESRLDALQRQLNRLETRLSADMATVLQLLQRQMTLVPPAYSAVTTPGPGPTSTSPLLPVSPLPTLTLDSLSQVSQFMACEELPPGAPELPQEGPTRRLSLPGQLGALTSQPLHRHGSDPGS
pIC50: −log10 of the molar value. Structures can show the parent of a compound that is named as a salt.
Quick reference for pIC50 among some compounds

Look over these answered cases.
[[record]]
compound = "C[C@H]1Oc2cccnc2[C@@H]1CN [Example 27, dihydrochloride]"
endpoint_result = "< 4.00"

[[record]]
compound = "Cc1ccnc2c1O[C@H](C)[C@H]2CN [Example 34, dihydrochloride]"
endpoint_result = "< 4.00"

[[record]]
compound = "CNC[C@H]1c2nc(C)ccc2O[C@@H]1C"
endpoint_result = "< 4.00"


What does the record list as pIC50 for CC[C@@H]1Oc2cccnc2[C@H]1CN (stereo in doubt) [Example 44, dihydrochloride] ?
< 4.00

----------
target: human TAAR1 receptor (Homo sapiens (Human), UniProt Q96RJ0); assay: Evaluation of agonist activity on human TAAR1 receptor (cAMP assay); format: cell-based; details: CHO, 0.5 h, 1000 nM; cAMP in human TAAR1-expressing CHO cells; relative to 100 μM tyramine; read-out: TAAR1 agonist activity at each concentration (%)
Where a name gives a salt, the structure may show the parent alone.
Catalogue of activation at 1 µM values

Use these answered entries as a reference point.
[[record]]
compound = "NC[C@H]1c2nc(F)ccc2OC12CC2 (single isomer, unassigned) [Example 103, dihydrobromide]"
target_or_system = "human TAAR1 receptor (Homo sapiens (Human), UniProt Q96RJ0)"
measured_metric = "activation at 1 µM"
endpoint_result = "84%"

[[record]]
compound = "CNC[C@H]1c2ncccc2O[C@@H]1C [Example 46, dihydrochloride]"
target_or_system = "human TAAR1 receptor (Homo sapiens (Human), UniProt Q96RJ0)"
measured_metric = "activation at 1 µM"
endpoint_result = "70%"

[[record]]
compound = "C[C@H]1Oc2cccnc2[C@@H]1CN [Example 27, dihydrochloride]"
target_or_system = "human TAAR1 receptor (Homo sapiens (Human), UniProt Q96RJ0)"
measured_metric = "activation at 1 µM"
endpoint_result = "81%"


# get_value(readout= activation at 1 µM, system= human TAAR1 receptor (Homo sapiens (Human), UniProt Q96RJ0)) for NC[C@H]1c2ncccc2OC12CC2 (single isomer, unassigned) [Example 97, dihydrochloride]
101%
